Test: Selectivity index, ratio of IC50 for cytotoxicity against human BJ cells to MIC for antibacterial activity against multidrug resistant Staphylococcus epidermidis clinical isolates
Assay type: toxicity, cell-based
Details: read-out: Selectivity Index
This listing pairs compounds with measured selectivity ratio.
quantity.kind: selectivity ratio

[[record]]
compound = "O=S(=O)(NC1CCN(CCC(Oc2ccc(C(F)(F)F)cc2)c2cccs2)CC1)c1cccc(Cl)c1 (racemic)"
quantity_kind = "selectivity ratio"
numeric_value = 1

[[record]]
compound = "O=C(Nc1cccc(Cl)c1)NC1CCN(CCC(Oc2ccc(C(F)(F)F)cc2)c2cccs2)CC1 (racemic)"
quantity_kind = "selectivity ratio"
numeric_value = 7.5

[[record]]
compound = "O=S(=O)(NC1CCN(CCC(Oc2ccc(C(F)(F)F)cc2)c2ccccc2)CC1)c1cccc(Cl)c1 (racemic)"
quantity_kind = "selectivity ratio"
numeric_value = 0.4

